The origin of these recorded values is patent US8263606B2.

Listed next: entries and their corresponding inhibition at 10 µM.
Target: CYP3A4 (Homo sapiens, UniProt P08684)
Sequence (P08684 whole entry): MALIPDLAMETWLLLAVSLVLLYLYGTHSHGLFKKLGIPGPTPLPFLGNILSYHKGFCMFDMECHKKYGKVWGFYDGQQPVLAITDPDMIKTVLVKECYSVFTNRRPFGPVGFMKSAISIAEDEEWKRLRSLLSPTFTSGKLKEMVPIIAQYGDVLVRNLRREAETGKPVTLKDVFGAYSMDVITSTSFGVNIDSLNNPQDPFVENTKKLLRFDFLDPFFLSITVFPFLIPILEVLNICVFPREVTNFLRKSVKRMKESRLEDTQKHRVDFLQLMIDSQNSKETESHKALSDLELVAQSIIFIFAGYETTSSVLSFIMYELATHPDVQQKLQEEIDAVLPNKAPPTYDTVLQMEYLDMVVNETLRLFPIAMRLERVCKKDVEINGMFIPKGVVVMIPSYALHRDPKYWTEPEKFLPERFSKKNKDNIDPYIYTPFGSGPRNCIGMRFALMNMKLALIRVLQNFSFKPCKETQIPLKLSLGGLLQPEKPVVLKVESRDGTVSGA
Assay: Cytochrome P450 (CYP450) Inhibition Assay, CYP3A4 (Vivid fluorescence, BOMCC substrate)
Settings: human, P450 Baculosomes (recombinant CYP3A4), probe BOMCC (Vivid substrate)

Record request: inhibition at 10 µM value, item Cc1cccc(CN2C(=O)C3(COc4cc5c(cc43)OCCO5)c3ccccc32)n1 (stereo not shown)
> 50%

Try the compound O=C1N(Cc2cnc(Br)s2)c2ccccc2C12COc1cc3c(cc12)OCO3 (stereo not shown)
> 50%

Try the compound COCCOCC(=O)Nc1cccc2c1C1(COc3cc4c(cc31)OCCO4)C(=O)N2C (stereo not shown)
< 50%

***
Record request: inhibition at 10 µM value, item O=C1N(Cc2ncccn2)c2ccccc2C12COc1cc3c(cc12)CCO3 (stereo not shown)
< 50%

###

Target: CYP3A4 (Homo sapiens)
Test: Cytochrome P450 (CYP450) Inhibition Assay, CYP3A4 (Vivid fluorescence, BOMCC substrate)
Conditions: human, P450 Baculosomes (recombinant CYP3A4), probe BOMCC (Vivid substrate)
Reported Endpoint: inhibition at 10 µM

Reference set (8 entries):
Record request: inhibition at 10 µM value, item O=C1N(Cc2nc3ccccc3s2)c2ccccc2C12COc1cc3c(cc12)OCCO3 (centres unmarked)
> 50%

Try the compound CC(C)(C)OC(=O)N1C(=O)C2(COc3cc4c(cc32)OCO4)c2c(Br)cccc21 (centres unmarked)
> 50%

Try the compound CN1C(=O)C2(COc3cc4c(cc32)OCCO4)c2c(C(=O)O)cccc21 (centres unmarked)
< 50%

Try the compound O=C1N(Cc2ccc(F)cc2)c2ccccc2C12COc1cc3c(cc12)OCCO3 (centres unmarked)
> 50%

Try the compound O=C1N(Cc2ccc(-c3nnn[nH]3)cc2)c2ccccc2C12COc1cc3c(cc12)CCO3 (centres unmarked)
> 50%

Try the compound O=C1Nc2cccc(-c3ccoc3)c2[C@]12COc1cc3c(cc12)OCO3
> 50%

Try the compound O=C1N(Cc2ccccc2C(F)F)c2ccccc2C12COc1cc3c(cc12)OCCO3 (centres unmarked)
< 50%

Try the compound O=C1CC[C@@H](CN2C(=O)C3(COc4cc5c(cc43)OCO5)c3ccccc32)N1 (some centres unmarked)
> 50%

***
Record request: inhibition at 10 µM value, item O=C1N(C[C@H]2CCCO2)c2ccccc2[C@]12COc1cc3c(cc12)CCO3
< 50%

Try the compound O=C1N(C[C@@H]2COCCO2)c2ccccc2C12COc1cc3c(cc12)OCCCO3 (some centres unmarked)
< 50%

Try the compound O=C(c1ccccc1CN1C(=O)C2(COc3cc4c(cc32)CCO4)c2ccccc21)N1CCCCC1 (centres unmarked)
> 50%

Try the compound CN1C(=O)C2(COc3cc4c(cc32)OCCO4)c2c(OCc3ccc(F)cc3)cccc21 (centres unmarked)
> 50%

###

Reported Endpoint: melting point

Reference set (5 entries):
Record request: melting point value, item O=C1N(Cc2ccc3nsnc3c2)c2ccccc2C12COc1cc3c(cc12)CCO3 (stereo not drawn) [Example 4.28]
162 to 164 °C

Try the compound O=C1OCCN1CCN1C(=O)C2(COc3cc4c(cc32)CCO4)c2ccccc21 (stereo not drawn) [Example 9.3]
185 to 186 °C

Try the compound O=C1N(C(c2ccccc2)c2ccccc2)c2ccccc2C12COc1cc(F)c(F)cc12 (stereo not drawn) [Example 2.61]
213 to 216 °C

Try the compound Cn1c(=O)oc2cc3c(cc21)OCC31C(=O)N(C(c2ccccc2)c2ccccc2)c2ccccc21 (stereo not drawn) [Example 2.16]
228 to 229 °C

Try the compound Nc1ccc2c(c1)OCC21C(=O)N(C[C@H]2CCCO2)c2ccccc21 (stereo partly drawn) [Example 11.47]
71 to 74 °C

***
Record request: melting point value, item Cc1ccc(F)c2c1N(C[C@H]1CCCO1)C(=O)C21COc2cc3c(cc21)CCO3 (stereo partly drawn) [Example 8.3]
175 to 176 °C

Try the compound O=C1N(C[C@H]2CCCO2)c2ccccc2C12COc1cc3c(cc12)OCCO3 (stereo partly drawn) [Example 4.44]
174 to 176 °C

Try the compound O=C1N(Cc2ccc(Cl)s2)c2cccc(Cl)c2C12COc1cc3c(cc12)OCO3 (stereo not drawn) [Example 4.89]
167 to 168 °C

Try the compound COc1cc2c(cc1F)OCC21C(=O)N(Cc2ccc(C(F)(F)F)o2)c2ccccc21 (stereo not drawn) [Example 4.83]
132 to 134 °C

Try the compound O=C1N(CC2COCCO2)c2ccccc2C12COc1cc3c(cc12)OCCO3 (stereo not drawn) [Example 4.45]
160 to 165 °C

Try the compound N#Cc1cc2c(cc1O)OCC21C(=O)N(Cc2ccccc2C(F)(F)F)c2ccccc21 (stereo not drawn) [Example 45.1]
122 to 124 °C

Try the compound CNC(=O)c1cccc2c1C1(COc3cc4c(cc31)OCCO4)C(=O)N2C (stereo not drawn) [Example 16.76]
120 to 122 °C

Try the compound Cn1c(=O)oc2cc3c(cc21)OCC31C(=O)Nc2ccccc21 (stereo not drawn) [Example 3.13]
> 250 °C

Try the compound Cc1cccc(C)c1NC(=O)c1ccc(CN2C(=O)C3(COc4cc5c(cc43)CCO5)c3ccccc32)cc1 (stereo not drawn) [Example 12.35]
> 250 °C

Try the compound N#CCN1C(=O)C2(COc3cc4c(cc32)OCCO4)c2ccccc21 (stereo not drawn) [Example 5.24]
161 to 162 °C

Try the compound O=C1N(Cc2ccc(O)cn2)c2ccccc2[C@]12COc1cc3c(cc12)OCCO3 [Example 1.13]
256 to 258 °C

###

Biological target: CYP3A4 (Homo sapiens)
Experiment: Cytochrome P450 (CYP450) Inhibition Assay, CYP3A4 (Vivid fluorescence, BOMCC substrate)
Conditions: human, P450 Baculosomes (recombinant CYP3A4), probe BOMCC (Vivid substrate)
Reported Endpoint: inhibition at 10 µM

Record request: inhibition at 10 µM value, item O=C1N(Cc2ccc(-c3ccncc3)o2)c2ccccc2C12COc1cc3c(cc12)CCO3 (stereo not shown)
> 50%

Try the molecule O=C1N(Cc2ccc3nsnc3c2)c2ccccc2C12COc1cc3c(cc12)CCO3 (stereo not shown)
> 50%

Try the molecule CCCCCN1C(=O)[C@]2(COc3cc4c(cc32)CCO4)c2ccccc21
> 50%

***
Record request: inhibition at 10 µM value, item O=C(O)c1cccc(CN2C(=O)C3(COc4cc5c(cc43)CCO5)c3ccccc32)c1 (stereo not shown)
< 50%

###

Target: CYP3A4 (Homo sapiens, UniProt P08684)
Experiment: Cytochrome P450 (CYP450) Inhibition Assay, CYP3A4 (Vivid fluorescence, BOMCC substrate)
Details: human, P450 Baculosomes (recombinant CYP3A4), probe BOMCC (Vivid substrate)
Reported Endpoint: inhibition at 10 µM

Reference set (3 entries):
Record request: inhibition at 10 µM value, item O=C1N(Cc2ncc(F)cc2F)c2ccccc2C12COc1cc3c(cc12)OCCO3 (stereo not drawn) [Example 4.104]
< 50%

Try the compound Cc1noc2cc3c(cc12)C1(CO3)C(=O)Nc2ccccc21 (stereo not drawn) [Example 3.6]
< 50%

Try the compound O=C1N(Cc2ncccn2)c2ccccc2[C@]12COc1cc3c(cc12)OCCO3 [Example 5.18]
< 50%

***
Record request: inhibition at 10 µM value, item NC(=O)c1cccc(CN2C(=O)C3(COc4cc5c(cc43)OCCO5)c3ccccc32)n1 (stereo not drawn) [Example 42]
> 50%

Try the compound O=C(CN1C(=O)C2(COc3cc4c(cc32)OCCO4)c2ccccc21)Nc1ccccc1F (stereo not drawn) [Example 13.7]
< 50%

Try the compound O=C1N(C[C@@H]2CCCO2)c2ccccc2[C@]12COc1cc3c(cc12)CCO3 [Example 11.69]
< 50%

Try the compound CC(C)c1ncc(CN2C(=O)C3(COc4cc5c(cc43)OCO5)c3ccccc32)o1 (stereo not drawn) [Example 4.77]
> 50%

Try the compound O=C1N(Cc2ccccn2)c2ccccc2[C@]12COc1cc3c(cc12)CCO3 [Example 5.6]
< 50%

Try the compound Cn1c(=O)oc2cc3c(cc21)OCC31C(=O)Nc2ccccc21 (stereo not drawn) [Example 3.13]
< 50%

Try the compound CC(CNC(=O)c1cccc(CN2C(=O)C3(COc4cc5c(cc43)CCO5)c3ccccc32)c1)c1ccccc1 (stereo not drawn) [Example 12.5]
> 50%

Try the compound O=C1N(Cc2nc3ncccc3o2)c2ccccc2C12COc1cc3c(cc12)OCO3 (stereo not drawn) [Example 6.8]
< 50%

Try the compound CCC(CC)CNC(=O)c1ccc(CN2C(=O)C3(COc4cc5c(cc43)CCO5)c3ccccc32)cc1 (stereo not drawn) [Example 12.45]
< 50%

Try the compound CN1C(=O)C2(COc3cc4c(cc32)OCCO4)c2c(C(=O)NC3CCC3)cccc21 (stereo not drawn) [Example 16.77]
< 50%

Try the compound O=C1N(Cc2ncccc2C(F)(F)F)c2c(F)cccc2C12COc1cc3c(cc12)OCCO3 (stereo not drawn) [Example 8.16]
< 50%

Try the compound Cc1noc(C)c1-c1cccc2c1C1(COc3cc4c(cc31)OCCO4)C(=O)N2C (stereo not drawn) [Example 16.75]
> 50%

Try the compound O=C1Nc2ccccc2C12CCOc1cc3c(cc12)CCO3 (stereo not drawn) [Example 3.24]
< 50%

Try the compound O=C1N(CC2CCCOC2)c2ccccc2C12COc1cc3c(cc12)CCO3 (stereo not drawn) [Example 4.10]
< 50%

Try the compound CN1C(=O)C2(COc3cc4c(cc32)OCCO4)c2c(-c3cn[nH]c3)cccc21 (stereo not drawn) [Example 16.69]
< 50%

Try the compound O=C1N(C[C@H]2CCCO2)c2cc3c(cc2C12COc1cc4c(cc12)CCO4)OCCO3 (stereo partly drawn) [Example 2.26]
< 50%

Try the compound COc1ccc2c(c1)OCC21C(=O)N(Cc2cccnc2)c2ccccc21 (stereo not drawn) [Example 9.34]
> 50%

Try the compound O=C1N(C[C@H]2CCCO2)c2ccccc2C12COc1cc3c(cc12)OCCCO3 (stereo partly drawn) [Example 8.11]
< 50%
